target system: T1, KLHL3 Kelch domain (a.a. 298–587) (human, UniProt Q9UH77-1 298-587)
T1 chain: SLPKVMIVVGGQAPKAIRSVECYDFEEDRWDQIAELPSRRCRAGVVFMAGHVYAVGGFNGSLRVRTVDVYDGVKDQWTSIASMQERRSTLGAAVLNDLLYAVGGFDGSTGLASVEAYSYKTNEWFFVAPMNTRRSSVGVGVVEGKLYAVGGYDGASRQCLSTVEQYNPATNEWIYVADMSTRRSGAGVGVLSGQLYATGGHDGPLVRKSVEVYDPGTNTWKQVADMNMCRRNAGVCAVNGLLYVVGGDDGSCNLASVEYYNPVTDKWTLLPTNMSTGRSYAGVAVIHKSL
assay explanation: FP; 150 mM F-
Ends that are not written are not given here. Rhodamine‑110 = fluorophore on the N-terminus
Assignment: determine reported Kd for the given binders.
Numbers only, in nM.

{Rhodamine‑110}-EPEEPEADQHQ (WNK4 acidic degron motif, residues 557–567; also called 11-residue degron from WNK4; source: synthetic peptide (Fmoc solid phase, purified by HPLC)) [Rhodamine-110 labelled WNK4 degron peptide (EPEEPEADQHQ)] = 300

Attention now shifts to the item below.
Input: Item {Rhodamine‑110}-ECEETEVDQHV [Rhodamine-110 labelled WNK3 degron peptide (ECEETEVDQHV)] has what recorded Kd?
Output: 1100

All figures here come from paper PMC9022995.
